These entries and their values trace back to patent US12534474B2.

measured.on: ROCK1 (Homo sapiens)
experimental.details: In vitro Rho kinase inhibitory activity assay, ADP-Glo, Method B (ATP 200 μM)
Format: biochemical
experimental.context: read-out: Method B ROCK 1 (Ki)
readout.kind: Ki

## Input # get_value(readout='Ki', item= "O=C(NCc1ccon1)c1cccc(CNc2ncc(-c3ccncc3)c3c2CCO3)c1" )
## Output 3 to 30 nM

## Input Next compound: O=C(NC1CC2CN(C3COC3)CC2C1)c1cccc(CNc2ncc(-c3ccncc3)c3c2CCO3)c1 (single isomer, unassigned) [Example 43b]
## Output ≤ 3 nM

## Input Next compound: "O=C(Nc1cccc(CNc2ncc(-c3ccncc3)c3c2CCO3)c1)c1ccc(CN2CCOCC2)cc1"
## Output ≤ 3 nM

## Input Next compound: c1ccc(CNc2ncc(-c3ccncc3)c3c2CCO3)cc1 [Example A, reference compound]
## Output > 30 nM

## Input Next compound: "O=C(NCc1cocn1)c1cccc(CNc2ncc(-c3ccncc3)c3c2CCO3)c1"
## Output 3 to 30 nM

* * *

measured.on: ROCK1 (Homo sapiens)
experimental.details: In vitro Rho kinase inhibitory activity assay, ADP-Glo, Method A (ATP 10 μM)
Assay type: biochemical
experimental.context: read-out: Method A ROCK 1 (Ki)
readout.kind: Ki

Solved cases below.
compound=Cc1cnccc1-c1cnc(NCc2cccc(C(=O)Nc3nc4c(s3)CN(C)CC4)c2)c2c1OCC2 test_value="≤ 3 nM"
compound=O=C(NCCN1CCCCC1)c1cccc(CNc2ncc(-c3ccncc3)c3c2CCO3)c1 test_value="≤ 3 nM"

## Input # get_value(readout='Ki', item= "O=C(N[C@H](CO)c1ccccc1)c1cccc(CNc2ncc(-c3ccncc3)c3c2CCO3)c1" )
## Output ≤ 3 nM

## Input Next compound: CC(=O)Nc1cccc(CNc2ncc(-c3ccncc3)c3c2CC(C)O3)c1 (stereo not shown)
## Output 3 to 30 nM

## Input Next compound: "O=C(Nc1cccc(CNc2ncc(-c3ccncc3)c3c2CCO3)c1)c1nc2c(s1)CN(C1COC1)CC2"
## Output ≤ 3 nM

## Input Next compound: "O=C(Nc1ncc(CN2CCCC2)s1)c1cccc(CNc2ncc(-c3ccncc3)c3c2CCO3)c1"
## Output ≤ 3 nM

## Input Next compound: "CN(C)Cc1cccc(CNC(=O)c2cccc(CNc3ncc(-c4ccncc4)c4c3CCO4)c2)c1"
## Output ≤ 3 nM

## Input Next compound: "CN1CCn2nc(NC(=O)c3cccc(CNc4ncc(-c5ccncc5)c5c4CCO5)c3)cc2C1"
## Output ≤ 3 nM

## Input Next compound: "CNC(=O)c1cccc(CNc2ncc(-c3ccncc3)c3c2CCO3)c1"
## Output 3 to 30 nM

## Input Next compound: "O=C(NCCc1ccncc1)c1cccc(CNc2ncc(-c3ccncc3)c3c2CCO3)c1"
## Output ≤ 3 nM

## Input Next compound: "CN1CCc2sc(C(=O)Nc3cccc(CNc4ncc(-c5ccncc5)c5c4CCO5)c3)nc2C1"
## Output ≤ 3 nM

## Input Next compound: "CN1CCc2nc(NC(=O)c3cccc(CNc4ncc(-c5ccnc(F)c5)c5c4CCO5)c3)sc2C1"
## Output ≤ 3 nM

## Input Next compound: "Cc1cc(-c2cnc(NCc3cccc(C(=O)Nc4nc5c(s4)CN(C)CC5)c3)c3c2OCC3)ccn1"
## Output 3 to 30 nM

## Input Next compound: "CN(C)CCn1ccc2cc(C(=O)Nc3cccc(CNc4ncc(-c5ccncc5)c5c4CCO5)c3)ccc21"
## Output ≤ 3 nM

## Input Next compound: "CN1CCc2nc(NC(=O)c3cccc(CNc4ncc(-c5ccnc(N)c5)c5c4CCO5)c3)sc2C1"
## Output ≤ 3 nM

## Input Next compound: "CN1CCc2nc(NC(=O)c3cccc(CNc4ncc(-c5ccncc5)c5c4CCO5)c3)sc2C1"
## Output ≤ 3 nM

* * *

measured.on: ROCK1 (Homo sapiens)
experimental.details: In vitro Rho kinase inhibitory activity assay, ADP-Glo, Method B (ATP 200 μM)
Assay type: biochemical
experimental.context: read-out: Method B ROCK 1 (Ki)
pKi: −log10 of the molar value.
Measured pKi accompanies every entry in the list below.

Solved cases below.
compound="CN1CCc2sc(C(=O)Nc3cccc(CNc4ncc(-c5ccncc5)c5c4CCO5)c3)nc2C1 [Example 54]" readout_kind=pKi test_value="≥ 8.52"
compound="O=C(NC1CC1)c1cccc(CNc2ncc(-c3ccncc3)c3c2CCO3)c1 [Example 16]" readout_kind=pKi test_value="7.52 to 8.52"
compound="Cn1cnc(CNC(=O)c2cccc(CNc3ncc(-c4ccncc4)c4c3CCO4)c2)c1 [Example 3]" readout_kind=pKi test_value="7.52 to 8.52"
compound="O=C(NCCN1CCOCC1)c1cccc(CNc2ncc(-c3ccncc3)c3c2CCO3)c1 [Example 28]" readout_kind=pKi test_value="7.52 to 8.52"
compound="CNC(=O)c1cccc(CNc2ncc(-c3ccncc3)c3c2OCC3)c1 [Example C, reference compound]" readout_kind=pKi test_value="< 7.52"

## Input # get_value(readout='pKi', item= CNC(=O)c1cccc(CNc2ncc(-c3ccncc3F)c3c2CCO3)c1 [Example 45] )
## Output 7.52 to 8.52

## Input Next compound: CN1CCOC(CNC(=O)c2cccc(CNc3ncc(-c4ccncc4)c4c3CCO4)c2)C1 (centres unmarked) [Example 10]
## Output ≥ 8.52

## Input Next compound: COc1ccc(NC(=O)c2cccc(CNc3ncc(-c4ccncc4)c4c3CCO4)c2)nc1 [Example 14]
## Output ≥ 8.52

* * *

measured.on: UniProt Q13464
experimental.details: In vitro Rho kinase inhibitory activity assay, ADP-Glo, Method A (ATP 10 μM)
Format: biochemical
experimental.context: read-out: Method A ROCK 1 (Ki)
pKi: −log10 of the molar value.
readout.kind: pKi

compound="O=C(NCCc1cccnc1)c1cccc(CNc2ncc(-c3ccncc3)c3c2CCO3)c1 [Example 29]" measured_on="UniProt Q13464" readout_kind=pKi test_value="≥ 8.52"
compound="CN(C)Cc1cccc(NC(=O)c2cccc(CNc3ncc(-c4ccncc4)c4c3CCO4)c2)c1 [Example 26]" measured_on="UniProt Q13464" readout_kind=pKi test_value="≥ 8.52"
compound="Cn1ncc2cc(C(=O)Nc3cccc(CNc4ncc(-c5ccncc5)c5c4CCO5)c3)ccc21 [Example 37]" measured_on="UniProt Q13464" readout_kind=pKi test_value="≥ 8.52"

## Input # get_value(readout='pKi', item= CN(C)Cc1nc(C(=O)Nc2cccc(CNc3ncc(-c4ccncc4)c4c3CCO4)c2)cs1 [Example 53] )
## Output 7.52 to 8.52

## Input Next compound: c1ccc(CNc2ncc(-c3ccncc3)c3c2CCO3)cc1 [Example A, reference compound]
## Output < 7.52

* * *

measured.on: ROCK2 (Homo sapiens, UniProt O75116)
Sequence (O75116 whole entry): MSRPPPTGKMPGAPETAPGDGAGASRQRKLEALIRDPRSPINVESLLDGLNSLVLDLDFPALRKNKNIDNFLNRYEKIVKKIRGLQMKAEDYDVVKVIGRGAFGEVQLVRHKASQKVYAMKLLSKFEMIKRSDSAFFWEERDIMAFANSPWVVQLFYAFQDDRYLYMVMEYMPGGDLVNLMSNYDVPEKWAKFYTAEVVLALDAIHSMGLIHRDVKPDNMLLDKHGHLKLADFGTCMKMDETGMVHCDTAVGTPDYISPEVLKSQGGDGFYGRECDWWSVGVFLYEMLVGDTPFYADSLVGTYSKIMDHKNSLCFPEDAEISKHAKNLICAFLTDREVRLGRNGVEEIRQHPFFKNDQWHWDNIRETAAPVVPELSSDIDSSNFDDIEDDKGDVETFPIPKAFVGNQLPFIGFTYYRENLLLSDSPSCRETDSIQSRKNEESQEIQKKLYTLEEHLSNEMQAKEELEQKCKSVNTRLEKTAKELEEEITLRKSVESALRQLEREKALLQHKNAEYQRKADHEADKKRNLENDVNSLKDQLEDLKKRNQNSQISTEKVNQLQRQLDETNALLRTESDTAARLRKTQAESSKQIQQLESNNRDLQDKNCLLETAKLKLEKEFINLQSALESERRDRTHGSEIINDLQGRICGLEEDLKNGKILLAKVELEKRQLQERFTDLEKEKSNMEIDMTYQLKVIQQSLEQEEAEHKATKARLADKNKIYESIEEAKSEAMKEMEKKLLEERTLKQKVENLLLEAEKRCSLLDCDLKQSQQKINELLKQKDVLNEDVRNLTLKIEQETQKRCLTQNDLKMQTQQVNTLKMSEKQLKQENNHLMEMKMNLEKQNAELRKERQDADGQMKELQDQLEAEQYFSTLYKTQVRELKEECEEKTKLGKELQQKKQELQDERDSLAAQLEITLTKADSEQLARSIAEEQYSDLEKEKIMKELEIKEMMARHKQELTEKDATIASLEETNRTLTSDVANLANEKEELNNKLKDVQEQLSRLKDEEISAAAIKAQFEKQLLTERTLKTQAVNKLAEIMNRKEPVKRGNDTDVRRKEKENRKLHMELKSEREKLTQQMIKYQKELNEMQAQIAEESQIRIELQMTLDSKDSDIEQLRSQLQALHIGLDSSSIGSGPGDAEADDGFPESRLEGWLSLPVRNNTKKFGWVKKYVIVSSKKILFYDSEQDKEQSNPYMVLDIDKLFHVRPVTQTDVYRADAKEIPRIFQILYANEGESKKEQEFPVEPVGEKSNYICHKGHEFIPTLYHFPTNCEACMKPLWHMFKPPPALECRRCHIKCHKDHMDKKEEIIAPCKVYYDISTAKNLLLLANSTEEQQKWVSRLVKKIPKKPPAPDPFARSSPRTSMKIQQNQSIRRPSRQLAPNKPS
experimental.details: In vitro Rho kinase inhibitory activity assay, ADP-Glo, Method B (ATP 200 μM)
Assay type: biochemical
experimental.context: read-out: Method B ROCK 2 (Ki)
readout.kind: Ki

Solved cases below.
molecule="CN1CCc2sc(C(=O)Nc3cccc(CNc4ncc(-c5ccncc5)c5c4CCO5)c3)nc2C1 [Example 54]" test_value="≤ 3 nM"
molecule="O=C(NCCN1CCCCC1)c1cccc(CNc2ncc(-c3ccncc3)c3c2CCO3)c1 [Example 30]" test_value="3 to 30 nM"
molecule="O=C(NCc1cocn1)c1cccc(CNc2ncc(-c3ccncc3)c3c2CCO3)c1 [Example 8]" test_value="≤ 3 nM"
molecule="CN1CCC(CCNC(=O)c2cccc(CNc3ncc(-c4ccncc4)c4c3CCO4)c2)CC1 [Example 22]" test_value="≤ 3 nM"
molecule="CC(C)(C)N1CC(CNC(=O)c2cccc(CNc3ncc(-c4ccncc4)c4c3CCO4)c2)CC1=O (stereo not shown) [Example 15]" test_value="≤ 3 nM"
molecule="COc1ccc(NC(=O)c2cccc(CNc3ncc(-c4ccncc4)c4c3CCO4)c2)nc1 [Example 14]" test_value="≤ 3 nM"

## Input # get_value(readout='Ki', item= O=C(NCCC1CCN(C2COC2)CC1)c1cccc(CNc2ncc(-c3ccncc3)c3c2CCO3)c1 [Example 42] )
## Output ≤ 3 nM

## Input Next molecule: O=C(NC1CC2CN(C3COC3)CC2C1)c1cccc(CNc2ncc(-c3ccncc3)c3c2CCO3)c1 (single isomer, unassigned) [Example 43b]
## Output ≤ 3 nM

## Input Next molecule: O=C(NCCCF)c1cccc(CNc2ncc(-c3ccncc3)c3c2CCO3)c1 [Example 4]
## Output 3 to 30 nM

## Input Next molecule: Cn1cnc(CNC(=O)c2cccc(CNc3ncc(-c4ccncc4)c4c3CCO4)c2)c1 [Example 3]
## Output ≤ 3 nM

## Input Next molecule: O=C(Nc1ncc(CN2CCCC2)s1)c1cccc(CNc2ncc(-c3ccncc3)c3c2CCO3)c1 [Example 1]
## Output ≤ 3 nM

* * *

measured.on: ROCK1 (Homo sapiens, UniProt Q13464)
Sequence (Q13464 whole entry): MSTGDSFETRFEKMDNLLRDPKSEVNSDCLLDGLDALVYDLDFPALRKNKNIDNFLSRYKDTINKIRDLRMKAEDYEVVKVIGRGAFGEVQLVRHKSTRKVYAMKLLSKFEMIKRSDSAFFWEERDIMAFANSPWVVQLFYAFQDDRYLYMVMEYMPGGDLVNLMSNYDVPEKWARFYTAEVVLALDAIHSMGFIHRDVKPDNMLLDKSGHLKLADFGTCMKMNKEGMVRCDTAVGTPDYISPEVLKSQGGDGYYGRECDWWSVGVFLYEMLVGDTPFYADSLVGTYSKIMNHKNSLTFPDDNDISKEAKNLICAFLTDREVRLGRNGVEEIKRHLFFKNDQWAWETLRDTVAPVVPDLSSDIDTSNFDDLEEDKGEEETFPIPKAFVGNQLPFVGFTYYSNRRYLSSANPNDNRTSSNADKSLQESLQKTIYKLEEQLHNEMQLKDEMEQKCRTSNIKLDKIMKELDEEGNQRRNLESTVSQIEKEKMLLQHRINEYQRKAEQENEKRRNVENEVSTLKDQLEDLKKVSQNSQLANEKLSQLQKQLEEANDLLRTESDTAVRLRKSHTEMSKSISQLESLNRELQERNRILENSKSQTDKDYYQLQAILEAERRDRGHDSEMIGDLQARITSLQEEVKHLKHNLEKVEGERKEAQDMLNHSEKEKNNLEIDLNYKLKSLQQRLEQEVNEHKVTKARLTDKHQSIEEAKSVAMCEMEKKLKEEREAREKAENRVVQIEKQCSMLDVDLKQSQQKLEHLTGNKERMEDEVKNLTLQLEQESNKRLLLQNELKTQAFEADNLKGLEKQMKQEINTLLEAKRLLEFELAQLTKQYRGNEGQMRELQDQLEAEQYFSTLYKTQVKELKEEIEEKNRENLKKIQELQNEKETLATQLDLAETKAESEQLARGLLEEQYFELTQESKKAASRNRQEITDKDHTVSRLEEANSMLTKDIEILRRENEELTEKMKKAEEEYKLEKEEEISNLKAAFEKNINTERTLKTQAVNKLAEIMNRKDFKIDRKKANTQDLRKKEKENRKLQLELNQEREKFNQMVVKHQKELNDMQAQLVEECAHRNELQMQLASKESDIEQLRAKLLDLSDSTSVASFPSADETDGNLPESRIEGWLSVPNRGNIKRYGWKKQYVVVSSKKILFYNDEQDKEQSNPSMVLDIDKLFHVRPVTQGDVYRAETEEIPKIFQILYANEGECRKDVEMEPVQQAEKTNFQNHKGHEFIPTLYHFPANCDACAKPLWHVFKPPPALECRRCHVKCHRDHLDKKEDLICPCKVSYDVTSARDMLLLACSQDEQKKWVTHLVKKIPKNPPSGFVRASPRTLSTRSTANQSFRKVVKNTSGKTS
experimental.details: In vitro Rho kinase inhibitory activity assay, ADP-Glo, Method B (ATP 200 μM)
Format: biochemical
experimental.context: read-out: Method B ROCK 1 (Ki)
Experimental: In Vitro Inhibitory Activity Assay Description (Method B) The effectiveness of compounds of the present invention to inhibit Rho kinase activity can be determined in a 10 μL assay containing 40 mM Tris pH7.5, 20 mM MgCl2 0.1 mg/mL BSA, 50 μM DTT and 2.5 μM peptide substrate (Myelin Basic Protein) using an ADP-Glo kit (Promega). Compounds were dissolved in DMSO such that the final concentration of DMSO was 1% in the assay. […] The luminescent signal was measured on a luminometer. […]
pKi: −log10 of the molar value.
readout.kind: pKi

Solved cases below.
compound="O=C(NCc1cncnc1)c1cccc(CNc2ncc(-c3ccncc3)c3c2CCO3)c1 [Example 5]" readout_kind=pKi test_value="7.52 to 8.52"
compound="O=C(NC1CCOCC1)c1cccc(CNc2ncc(-c3ccncc3)c3c2CCO3)c1 [Example 7]" readout_kind=pKi test_value="7.52 to 8.52"
compound="O=C(Nc1ccncn1)c1cccc(CNc2ncc(-c3ccncc3)c3c2CCO3)c1 [Example 18]" readout_kind=pKi test_value="≥ 8.52"
compound="O=C(NC1CC2CN(C3COC3)CC2C1)c1cccc(CNc2ncc(-c3ccncc3)c3c2CCO3)c1 (single isomer, unassigned) [Example 43a]" readout_kind=pKi test_value="≥ 8.52"
compound="Cn1ccc(CNC(=O)c2cccc(CNc3ncc(-c4ccncc4)c4c3CCO4)c2)n1 [Example 19]" readout_kind=pKi test_value="7.52 to 8.52"
compound="COc1cc(NC(=O)c2cccc(CNc3ncc(-c4ccncc4)c4c3CCO4)c2)ncn1 [Example 31]" readout_kind=pKi test_value="≥ 8.52"
compound="CC(C)(C)N1CC(CNC(=O)c2cccc(CNc3ncc(-c4ccncc4)c4c3CCO4)c2)CC1=O (centres unmarked) [Example 15]" readout_kind=pKi test_value="≥ 8.52"

Moving on to another compound below.
## Input # get_value(readout='pKi', item= O=C(Nc1cccnn1)c1cccc(CNc2ncc(-c3ccncc3)c3c2CCO3)c1 [Example 17] )
## Output 7.52 to 8.52
